test: Toxicokinetics, 14-day intranasal study in rats (Study 700041); format: in vivo; settings: female, Sprague Dawley, rat, plasma, inhaled or intranasal, 75 mg/kg/day, Day 14, Female, read-out: t1/2 (converted)
metric: half-life (min)
Please reply with the bare figure in min and do not write the unit itself.

**Query** Which measured half-life value corresponds to COc1ccc2[nH]cc(CCN(C)C)c2c1 [5MeODMT, 5-methoxy-N,N-dimethyltryptamine] ?
**Result** 7.8

----------
Assay: Toxicokinetics, 14-day intranasal study in dogs (Study 62959)
Type: in vivo
Settings: male, beagle, dog, plasma, inhaled or intranasal, 0.4 mg/kg/day, Day 14, Male
Description: Assessments of mortality, clinical signs, olfactory reflex, body weights, food consumption, ophthalmology, and electrocardiograms were performed. In addition, clinical pathology assessments (hematology, coagulation, clinical chemistry and urinalysis) were evaluated once pretreatment and at termination. […]
metric: Cmax

**Query** Which measured Cmax value corresponds to COc1ccc2[nH]cc(CCN(C)C)c2c1 ?
**Result** 285 ng/mL

----------
assay: Toxicokinetics, 14-day intranasal study in rats (Study 700041); type: in vivo; conditions: female, Sprague Dawley, rat, plasma, inhaled or intranasal, 5 mg/kg/day, Day 14, Female, read-out: t1/2 (converted)
metric: half-life (min)
Please reply with the bare figure in min and do not write the unit itself.

**Query** Which measured half-life value corresponds to COc1ccc2[nH]cc(CCN(C)C)c2c1 [5MeODMT, 5-methoxy-N,N-dimethyltryptamine] ?
**Result** 6.78

----------
assay: Toxicokinetics, 14-day intranasal study in dogs (Study 62959); type: in vivo; settings: male, Beagle, dog, plasma, inhaled or intranasal, 0.8 mg/kg/day, Day 14, Male, read-out: AUCINF_obs
metric: AUC(0-inf) (ng·h/mL)
Please reply with the bare figure in ng·h/mL and do not write the unit itself.

**Query** Which measured AUC(0-inf) value corresponds to COc1ccc2[nH]cc(CCN(C)C)c2c1 ?
**Result** 322

----------
assay: Toxicokinetics, 14-day intranasal study in rats (Study 700041); format: in vivo; conditions: female, Sprague Dawley, rat, plasma, inhaled or intranasal, 5 mg/kg/day, Day 1, Female
metric: Cmax (ng/mL)
Please reply with the bare figure in ng/mL and do not write the unit itself.

**Query** Which measured Cmax value corresponds to COc1ccc2[nH]cc(CCN(C)C)c2c1 ?
**Result** 186

----------
Assay: Toxicokinetics, 14-day intranasal study in rats (Study 700041)
Type: in vivo
Settings: male, Sprague Dawley, rat, plasma, inhaled or intranasal, 20 mg/kg/day, Day 1, Male, read-out: AUC0-Tlast [SE]
Description: The animals were monitored for mortality, clinical signs, respiratory measurements, body weights, food consumption, and body temperature. Ophthalmoscopic examinations and respiratory function tests were performed on all animals at scheduled timepoints. Clinical pathology assessments (hematology, coagulation, clinical chemistry, and urinalysis) were evaluated at termination. […] Following dosing, the Main animals were euthanized and subjected to a complete necropsy examination on Day 15. […]
metric: AUC(0-t) (ng·h/mL)
Please reply with the bare figure in ng·h/mL and do not write the unit itself.

**Query** Which measured AUC(0-t) value corresponds to COc1ccc2[nH]cc(CCN(C)C)c2c1 ?
**Result** 420

----------
Experiment: Toxicokinetics, 14-day intranasal study in rats (Study 700041)
Type: in vivo
Settings: female, Sprague Dawley, rat, plasma, inhaled or intranasal, 75 mg/kg/day, Day 1, Female
Description: The animals were monitored for mortality, clinical signs, respiratory measurements, body weights, food consumption, and body temperature. Ophthalmoscopic examinations and respiratory function tests were performed on all animals at scheduled timepoints. Clinical pathology assessments (hematology, coagulation, clinical chemistry, and urinalysis) were evaluated at termination. […] Following dosing, the Main animals were euthanized and subjected to a complete necropsy examination on Day 15. […]
metric: Cmax
Write the numeric value and append its unit.

**Query** Which measured Cmax value corresponds to COc1ccc2[nH]cc(CCN(C)C)c2c1 [5MeODMT, 5-methoxy-N,N-dimethyltryptamine] ?
**Result** 1310 ng/mL
